# testedTarget: T1, human CD123 Strep-II tagged Fc-fusion protein (human)
# T1 construct: also called human CD123-Fc; recombinant CD123
# T1 sequence (chain, as listed by the source limits assumed): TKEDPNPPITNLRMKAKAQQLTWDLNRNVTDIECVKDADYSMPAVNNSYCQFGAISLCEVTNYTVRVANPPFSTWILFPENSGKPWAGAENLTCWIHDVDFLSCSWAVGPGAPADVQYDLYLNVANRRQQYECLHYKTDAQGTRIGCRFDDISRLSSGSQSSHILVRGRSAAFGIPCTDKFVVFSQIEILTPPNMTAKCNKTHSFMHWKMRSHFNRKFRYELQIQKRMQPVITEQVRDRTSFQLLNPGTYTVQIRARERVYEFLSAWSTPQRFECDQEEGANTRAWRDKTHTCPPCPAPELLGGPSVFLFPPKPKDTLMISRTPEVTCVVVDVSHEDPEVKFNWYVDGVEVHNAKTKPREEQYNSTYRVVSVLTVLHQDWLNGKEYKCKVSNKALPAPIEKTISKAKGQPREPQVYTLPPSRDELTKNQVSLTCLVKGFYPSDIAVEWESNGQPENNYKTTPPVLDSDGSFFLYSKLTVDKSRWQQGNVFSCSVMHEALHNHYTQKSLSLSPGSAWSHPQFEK
# procedureDetails: SPR Proteon XPR36, rat IgG captured, CD123-Fc analyte
observable: koff (s⁻¹)
Write the value in s⁻¹ as a bare number.

Which measured koff value corresponds to 1E1-G5 anti-CD123 rat IgG (hybridoma supernatant) (antibody, V domains shown, rat IgG; also called BFX - 1E1) VH: QVQLQESGPTLVKPGDSVKMSCKAFGYTFTDHIIHWVKQSHGKSLEWIGYINPYSGGTNYNEKFKSKATLTVDKSSSTAYMEFSRLTSEDSAICYCALNYGSYYAMDAWGQGTSVTVSS VL: DIQMTQSPASLSASLGQTVTIECRPSEDIYSNLAWFQQKPGSSPQLLIYDANNLADGVPSRFSGSGSGTQYSLKINSLQSEDVASYFCQQYNKYPYTFGTGTKLELK ?
0.00011

Item under review: 6B10-E4 anti-CD123 rat IgG (hybridoma supernatant) (antibody, V domains shown, rat IgG; also called BFX - 6B10) VH: EVQLVESGGGLVQPGRSLKLSCAASGFTFSHYNMAWVRQAPKKGLEWVATITYDDHSTYYRDSVKGRFTISRDTAKSTLYLQMDSLRSEDTATYYCARLVNYAFAYWGQGTLVTVSS VL: NIVMTQSPKSMSISVGDRVTMNCKASQTVGNNIAWYQQKPGLSPQLLIDYASNRYTGVPNRFTGGGYGTDFILTINSVQAEDAAFYYCQRMYNSPTFGGGTKLELK . Reported koff?
1.5e-05

Fill in the blank: the reported koff of 2F8-D6 anti-CD123 rat IgG (hybridoma supernatant) (antibody, V domains shown, rat IgG; also called BFX - 2F8) VH: QVQLKESGPGLVQPSQTLSLTCTVSGFSLTSYGVSWVRQPPGKGLEWIATISSAGSTYYDLVLKSRLSITRDTSKSQVFLKVHSLQTEDTAIYLCARDAPVFNYGSYNAMDSWGQGTSVTVSS VL: DIQMTQSPSFLSATVGDRVTINCKASQNINKYLNWYQQKLGEAPKRLIYNTNSLQTGIPSRFSGSGSGTDYTLTISSLQPEDVATYFCLQHKSGLTFGSGTKLEIK is ____.
6.6e-05

What value of koff has been reported for the following binder? 3E3-D3 anti-CD123 rat IgG (hybridoma supernatant) (antibody, V domains shown, rat IgG; also called BFX - 3E3) VH: QVQLQESGPGLVQPSQTLSLTCTVSGFSLTTYDVHWVRQPPGKGLEWMGRIQNGGITDYNSALKSRLIISRDTSKSQVFLKMNSVQTEDTAMYFCAKTGSYFYAFDHWGQGTLVTVSS VL: QFVLTQPNSVSTNLGSTVKLSCKRNTGNIGSNYVNWYQQHEGRSPTTMIYRDDKRPDGVPDRFSGSIDRSSNSALLTINNVQTEDEADYFCQSYSSGINIIFGGGTKLTVL
6.4e-05

# lookup: koff of 2B8-F3 anti-CD123 rat IgG (hybridoma supernatant) (antibody, V domains shown, rat IgG; also called BFX - 2B8) VH: EVQLVESGGGLVQPGRSLKLSCAASGFTFSDYNMAWVRQAPKKGLEWVATILYDGGRTYYRGSVKGRFTISRDNAKSTLYLRMDSLRSEDTATYYCATHSRGTDYFDYWGQGVMVTVSS VL: EIVLTQSPTSMTASPGEQVTITCRASSSINYMHWYQQKPGASPRPWIYETSKLASGVPDRFSGSASGTSYSLTINNMEAEDAATYYCQQWNYPSWTFGGGTKLELK
1.2e-05

Quick check: koff of 5A5-B4 anti-CD123 rat IgG (hybridoma supernatant) (antibody, V domains shown, rat IgG; also called BFX - 5A5) VH: QIQIVQSGSDVTSTCNGCGTCYFSGFSLSTTGICVSWIRQPSGKGQEWLADFCWDDGKGYNPSLKNRLSISKDTSNNQVFLKITSVDTADTATYYCARRRVYYGIYFDYWGQGVMVTVSS VL: DIVMTQSPALAVSPGERVSISCRASNSVSTRMHWYQQKPGQQPKLLIYGASNLESGVPARFSGSGSGTDFTLTIDPVEADDIATYFCQQSWNDPLTFGSGTKLEIK ?
0.00012

Please look up its koff: 6C10-C4 anti-CD123 rat IgG (hybridoma supernatant) (antibody, V domains shown, rat IgG; also called BFX - 6C10) VH: EVKLQESGPSLVQPSETLSLTCTVSGFSLTSYSVHWVRQHSGKSLEWMGRMWNDGDTSYNSAFTSRLSISRDTSKGQVFLKMNSLQTEDTGTYYCARGHRTPFDYWGQGVMVTVSS VL: DIVMTQSPSSLAVSAGETVTINCKSSQSFLSSGDERNYVAWYQHKPGQSPKLLIYWASTRHSGVPDRFIGSGSGTDFTLTISSVQAEDLAIYYCQQYYDTPLTFGSGTKLEIK
0.00014

Requested read-out: koff. Entry: 9B8-G6 anti-CD123 rat IgG (hybridoma supernatant) (antibody, V domains shown, rat IgG; also called BFX - 9B8) VH: EVKLQESGPSLVQSSQTLSLTCTVSGFSLTSYHIHWVRQPPGKGLEWMGVMWSDGDTSYSSALKSRLSISRDTSQSQVFLKMNSLQTEDTATYYCARGDYSSYIYLWFAYWGQGTLVTVSS VL: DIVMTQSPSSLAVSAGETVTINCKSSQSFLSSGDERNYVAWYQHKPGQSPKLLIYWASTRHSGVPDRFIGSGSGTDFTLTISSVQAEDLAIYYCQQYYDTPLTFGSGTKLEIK
0.00028

Suppose we examine the binder 8B11-B7 anti-CD123 rat IgG (hybridoma supernatant) (antibody, V domains shown, rat IgG; also called BFX - 8B11) VH: QVQLQESGPTLVNPGDSVKMSCKASGYTFTDHIIHWVKQSHGKSLEWIGYINPYSGGANYNGKFKSKATLTIDKSSSTAYMEFSRLTSGDSAIYYCALNYGSYYAMDAWGQGTSVTVSS VL: DIQMTQSPASLSASLGETVTIECRTSKDIYSNLAWFQQEPGNSPQLLIYDASNLADGVPSRFSGSGSGTQYSLQINNLQSEDVASYFCHQYNNYPYTFGTGTKLELK ; what koff value has been reported?
6.2e-06

Entry under review: 9D7-C8 anti-CD123 rat IgG (hybridoma supernatant) (antibody, V domains shown, rat IgG; also called BFX - 9D7) VH: EVKLQESGPSLVQSSQTLSLTCTVSGFSLTSYHIHWVRQTPGKGLEWMGVMWSDGDTSYNSALKSRLSISRDTSQSQVFLKMNSLQTEDTATYYCARGYYSSYLYLWFAYWGQGTLVTVSS VL: DIVMTQSPSSLAVSEGETVTINCKSSQSFLSSGDGKNYVAWYQYKPGQSPKLLIYWASTRQSGVPDRFIGSGSGTDFTLTISTVQAEDLAIYYCQQYYDTPLTFGSGTKLEIK . Reported koff?
0.00032

What does the data say about its koff? Entry: 9F6-G3 anti-CD123 rat IgG (hybridoma supernatant) (antibody, V domains shown, rat IgG; also called BFX - 9F6) VH: QVQLQESGPTLVKPGDSVKMSCKASGYTFTDYIIHWVKQSHGKSLEWIGYINPYSDGTNYNEKFKSKATLTVDKSTSTAYMEFSRLTSEDSAIYFCALNYGSYYAMDAWGQGTSVTVSS VL: DIQMTQSPASLSASLGETVTIECRPSEDIHSNVAWYQQKPGNSPQLLIYDASNLADGVPSRFSGSGSGTQYSLKINSLQSEDVASYFCHQYNIYPYTFGSGTKLELK
6.7e-06
